Source listed as ChEMBL document CHEMBL4513216.

# procedureDetails: Toxicity liver stage against HepG2, at 10uM
# Assay type: cell-based
# Design: test concentration 10 uM, cell line HepG2-A16-CD81EGFP
# conditionDetails: human, HepG2-A16-CD81EGFP cells; read-out: INHIBITION
measurementKind: cytotoxicity at 10 µM (%)
Answers are plain numbers, in %.

compound | cytotoxicity at 10 µM [%]
Cc1cccc(N2CCc3ncc(CNS(C)(=O)=O)n3CC2)n1 | 8.39
Cn1cnnc1-c1ccnc(NCc2ccccc2)c1 | -4.98
Cc1ccsc1C(CNC(=O)c1cc(=O)c2ccccc2[nH]1)N(C)C (configuration not stated) | -2.89
CCOCC(=O)N1C[C@@H]2COC[C@]2(c2nc(C)no2)C1 | -90.9

I'm hoping you can list cytotoxicity at 10 µM for every compound here, please.
1. O=C(N[C@@H]1CCC[C@@H](N2CCOCC2)[C@@H]1O)c1cc2ccccc2[nH]1
2. N[C@H]1CN(Cc2cnc(N3CCCC3)nc2)C[C@@H]1C1CC1

-26.9
-45.5

I'm hoping you can list cytotoxicity at 10 µM for every compound here, please.
1. CCOc1ccc(C(=O)N2CCCC(n3nc(C)nc3C)C2)cc1 (configuration not stated)
2. Cn1nccc1CNC(=O)CCn1nc(C(F)(F)F)cc1C1CC1

-4.34
-8.74

I'm hoping you can list cytotoxicity at 10 µM for every compound here, please.
1. Cc1ccc2oc(CN3CCn4nc(CCC(=O)O)cc4C3)c(C)c2c1
2. CC1CCCCN1C(=O)CCn1cnc2sccc2c1=O (configuration not stated)
3. Cc1ccc(NC(=O)N2CCCC(N(C)C)C2)c(Br)c1 (configuration not stated)

-5.56
3.63
-3.51
